The origin of these recorded values is paper PMC5945515.

# measurementTarget: huER (Homo sapiens, UniProt P03372)
# Construct: DU145 (GR), LNCaP-AR (AR), MCF7 (PR, ER), GL261 (mouse GR), and 9L (rat GR); endogenous in cells
# Sequence (P03372 1-595): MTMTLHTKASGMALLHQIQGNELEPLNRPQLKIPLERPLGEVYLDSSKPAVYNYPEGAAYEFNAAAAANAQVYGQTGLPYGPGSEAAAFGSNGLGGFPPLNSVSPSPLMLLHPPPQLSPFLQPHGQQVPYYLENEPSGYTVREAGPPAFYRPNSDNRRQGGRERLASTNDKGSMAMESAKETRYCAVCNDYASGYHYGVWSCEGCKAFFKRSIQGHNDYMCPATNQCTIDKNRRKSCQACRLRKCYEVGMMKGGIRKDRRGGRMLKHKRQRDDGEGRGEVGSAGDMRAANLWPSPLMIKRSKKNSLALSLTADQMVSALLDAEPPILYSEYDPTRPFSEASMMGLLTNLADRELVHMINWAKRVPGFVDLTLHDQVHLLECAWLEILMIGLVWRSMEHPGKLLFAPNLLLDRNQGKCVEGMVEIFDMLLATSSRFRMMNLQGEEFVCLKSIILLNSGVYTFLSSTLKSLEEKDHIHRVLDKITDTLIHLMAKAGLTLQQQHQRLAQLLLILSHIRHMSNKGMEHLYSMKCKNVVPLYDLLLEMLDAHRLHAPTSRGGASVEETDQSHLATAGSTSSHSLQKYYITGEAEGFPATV
# methodSummary: Competition binding assay on cells, human ER
# assayContext: MCF7 cells, displacing 3H-estradiol
The following molecules are shown together with reported Kd values.
Field: numeric (µM). Do not append units.

C[C@]12C=CC(=O)C=C1CCC1C2[C@@H](O)C[C@@]2(C)C1CC[C@]2(O)C(=O)COCCCF (some centres unmarked) [GR01] :: 0.978

Could you now look at the following molecule, please?
Inquiry: Look up and state reported Kd for C[C@]12C=CC(=O)C=C1CCC1C2[C@@H](O)C[C@@]2(C)C1CC[C@]2(O)C(=O)CNC(=O)c1ccc(F)cc1 (some centres unmarked) [GR02]
Reply text: 20.7

* * *

# measurementTarget: rat GR (Rattus norvegicus)
# Construct: endogenous in cells
# Sequence (P06536 whole entry): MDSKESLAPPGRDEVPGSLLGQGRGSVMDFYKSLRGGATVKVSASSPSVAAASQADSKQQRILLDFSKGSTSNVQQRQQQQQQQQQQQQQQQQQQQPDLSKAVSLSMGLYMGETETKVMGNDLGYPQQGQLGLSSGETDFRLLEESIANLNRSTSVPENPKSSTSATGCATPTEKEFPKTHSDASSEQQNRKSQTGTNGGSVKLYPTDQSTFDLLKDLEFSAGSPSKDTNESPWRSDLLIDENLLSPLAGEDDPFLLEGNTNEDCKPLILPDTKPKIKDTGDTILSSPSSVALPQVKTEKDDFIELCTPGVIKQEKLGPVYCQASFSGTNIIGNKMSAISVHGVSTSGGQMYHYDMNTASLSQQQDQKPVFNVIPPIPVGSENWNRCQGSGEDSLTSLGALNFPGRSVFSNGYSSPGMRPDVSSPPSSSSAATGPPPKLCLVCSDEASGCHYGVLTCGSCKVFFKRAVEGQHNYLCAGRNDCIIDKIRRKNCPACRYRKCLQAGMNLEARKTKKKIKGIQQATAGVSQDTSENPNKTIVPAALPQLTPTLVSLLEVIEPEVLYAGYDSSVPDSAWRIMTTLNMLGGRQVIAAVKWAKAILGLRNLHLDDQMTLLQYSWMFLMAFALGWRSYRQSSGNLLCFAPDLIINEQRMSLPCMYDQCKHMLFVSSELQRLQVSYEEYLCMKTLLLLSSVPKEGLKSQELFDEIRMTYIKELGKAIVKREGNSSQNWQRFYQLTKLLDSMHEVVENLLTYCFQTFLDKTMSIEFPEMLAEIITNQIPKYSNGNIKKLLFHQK
# methodSummary: Competition binding assay on cells, rat GR
# assayContext: 9L cells, displacing 3H-dexamethasone; read-out: KD rtGR
assayEndpoint: Kd (nM)
Field: numeric (nM). Do not append units.

Inquiry: Look up and state reported Kd for C[C@]12C=CC(=O)C=C1CCC1C2[C@@H](O)C[C@@]2(C)C1CC[C@]2(O)C(=O)CNC(=O)c1ccc(F)cc1 (stereo partly shown)
Reply text: 6.18

* * *

The following molecules are shown together with reported pKd values.
# measurementTarget: huPR (Homo sapiens, UniProt P06401)
# Construct: DU145 (GR), LNCaP-AR (AR), MCF7 (PR, ER), GL261 (mouse GR), and 9L (rat GR); endogenous in cells
# Sequence (P06401 whole entry): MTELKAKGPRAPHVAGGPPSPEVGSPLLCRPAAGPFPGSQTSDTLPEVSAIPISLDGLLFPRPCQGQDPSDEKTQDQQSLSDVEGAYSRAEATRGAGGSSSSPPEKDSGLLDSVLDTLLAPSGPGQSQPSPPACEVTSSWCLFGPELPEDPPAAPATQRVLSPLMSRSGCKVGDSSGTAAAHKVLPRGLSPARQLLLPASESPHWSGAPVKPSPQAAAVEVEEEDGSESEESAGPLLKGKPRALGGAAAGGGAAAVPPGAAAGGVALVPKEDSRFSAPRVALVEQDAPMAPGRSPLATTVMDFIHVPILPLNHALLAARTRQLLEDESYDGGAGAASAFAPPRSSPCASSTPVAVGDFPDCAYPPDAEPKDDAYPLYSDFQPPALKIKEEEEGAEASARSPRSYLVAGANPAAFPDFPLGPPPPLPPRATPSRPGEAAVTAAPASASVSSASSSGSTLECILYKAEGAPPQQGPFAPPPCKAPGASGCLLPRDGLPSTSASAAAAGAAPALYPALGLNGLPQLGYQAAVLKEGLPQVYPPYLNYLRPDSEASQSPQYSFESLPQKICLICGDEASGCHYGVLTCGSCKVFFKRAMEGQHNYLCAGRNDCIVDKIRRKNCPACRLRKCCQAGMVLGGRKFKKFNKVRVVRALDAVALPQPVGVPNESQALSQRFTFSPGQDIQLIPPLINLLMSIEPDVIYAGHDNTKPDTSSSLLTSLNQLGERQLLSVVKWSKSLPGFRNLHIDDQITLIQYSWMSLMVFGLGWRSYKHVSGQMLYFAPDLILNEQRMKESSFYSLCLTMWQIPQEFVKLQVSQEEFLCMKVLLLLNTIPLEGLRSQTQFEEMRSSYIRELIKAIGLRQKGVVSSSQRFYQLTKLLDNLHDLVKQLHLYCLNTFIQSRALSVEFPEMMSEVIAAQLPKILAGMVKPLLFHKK
# methodSummary: Competition binding assay on cells, human PR
# assayContext: MCF7 cells, displacing 3H-progesterone
# Method: The KD for subfamily 3 group C nuclear hormone receptors was determined on cells by displacing ^3H-steroidal agonists for the respective receptor. The cold ligands and ^3H-steroids were co-incubated on cells in PBS at room temperature for one hour. […] Bound and unbound fractions were counted in a liquid scintillation counter and expressed as a percentage of the total activity added per equal relative number of cells. […]
pKd is a log-scale quantity: -log10 of the concentration expressed in molar.

C[C@]12C=CC(=O)C=C1CCC1C2[C@@H](O)C[C@@]2(C)C1CC[C@]2(O)C(=O)CNC(=O)c1ccc(F)cc1 (some centres unmarked) :: 6.62

Could you now look at the following molecule, please?
Inquiry: Look up and state reported pKd for C[C@]12C=CC(=O)C=C1CCC1C2[C@@H](O)C[C@@]2(C)C1CC[C@]2(O)C(=O)COCCCF (some centres unmarked)
Reply text: 5.97

* * *

The following molecules are shown together with reported Kd values.
# measurementTarget: human GR (Homo sapiens, UniProt P04150)
# Construct: PC3 and DU145, two human prostate cancer models with endogenous GR expression; endogenous in cells; host or cells: DU145
# Sequence (P04150 whole entry): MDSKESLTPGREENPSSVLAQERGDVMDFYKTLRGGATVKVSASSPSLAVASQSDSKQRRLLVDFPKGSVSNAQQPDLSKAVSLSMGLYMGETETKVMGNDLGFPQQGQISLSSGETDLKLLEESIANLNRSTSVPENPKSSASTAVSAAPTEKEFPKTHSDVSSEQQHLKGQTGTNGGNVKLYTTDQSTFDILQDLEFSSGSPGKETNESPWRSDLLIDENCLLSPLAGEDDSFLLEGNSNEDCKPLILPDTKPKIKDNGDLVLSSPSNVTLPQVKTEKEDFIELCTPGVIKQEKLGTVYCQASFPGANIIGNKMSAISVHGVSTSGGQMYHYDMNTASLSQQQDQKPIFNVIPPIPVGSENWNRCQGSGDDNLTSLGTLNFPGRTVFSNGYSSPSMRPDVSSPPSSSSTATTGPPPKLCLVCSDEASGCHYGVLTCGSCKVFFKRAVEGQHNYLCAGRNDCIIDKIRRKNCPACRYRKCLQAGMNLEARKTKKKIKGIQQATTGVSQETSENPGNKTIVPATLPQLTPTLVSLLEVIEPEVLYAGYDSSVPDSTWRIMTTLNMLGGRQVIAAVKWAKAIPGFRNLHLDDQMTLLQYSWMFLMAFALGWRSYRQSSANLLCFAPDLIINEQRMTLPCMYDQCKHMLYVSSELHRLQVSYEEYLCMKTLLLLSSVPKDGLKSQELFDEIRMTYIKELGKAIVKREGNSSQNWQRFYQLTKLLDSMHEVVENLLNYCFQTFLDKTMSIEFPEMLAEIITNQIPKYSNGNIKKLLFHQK
# methodSummary: Competition binding assay on cells, human GR
# assayContext: DU145 cells, displacing 3H-dexamethasone; read-out: KD huGR
Field: numeric (nM). Do not append units.

C[C@]12C=CC(=O)C=C1CCC1C2[C@@H](O)C[C@@]2(C)C1CC[C@]2(O)C(=O)CNC(=O)c1ccc(F)cc1 (some centres unmarked) [GR02] :: 15.9

Could you now look at the following molecule, please?
Inquiry: Look up and state reported Kd for C[C@]12C=CC(=O)C=C1CCC1C2[C@@H](O)C[C@@]2(C)C1CC[C@]2(O)C(=O)COCCCF (some centres unmarked) [GR01]
Reply text: 3.86
